- Tested on: Staphylococcus aureus MW2 delta-mecA (mecA-)
- assay method text: IC50 (growth, competition assay)
- condition info: fluorescent label: DsRed; cefoxitin: subinhibitory
# maps each entry to its IC50

- compound: "O=[N+]([O-])C=Cc1ccc2c(c1)OCO2"
  IC50: "< 9.85 µM"
- compound: "CN(C)c1ccc(C(=C2C=CC(=[N+](C)C)C=C2)c2ccc(N(C)C)cc2)cc1 [GVS]"
  IC50: "< 9.85 µM"
- compound: "Clc1ccc(C(Cn2ccnc2)OCc2ccsc2Cl)c(Cl)c1 (stereo not given) [VAGISTAT]"
  IC50: "16.9 µM"
- compound: "COc1cc(Cc2cnc(N)nc2N)cc(OC)c1OC [Trimethoprim]"
  IC50: "< 9.85 µM"

Which IC50 is listed for O=C(O)CCCCC(CCSCc1ccccc1)SCc1ccccc1 (stereo not given) ?
< 9.85 µM
